Origin of values: ChEMBL document CHEMBL1221279

- Tested on: PC-3
- Experimental details: Cytotoxicity against human PC3 cells after 72 hrs by MTT assay
- Format: functional, cell-based
- Experimental context: PC-3, 72 h
Outcome measure: IC50

Request: Query (compound): COc1ccc(/C=C/C(=O)OCC(=O)Nc2ccccc2)cc1OC ; field requested: IC50
Result: > 200 µM

Request: Query (compound): O=C(/C=C/C(=O)N1CCN(Cc2ccc(Cl)c(Cl)c2)CC1)c1ccccc1 ; field requested: IC50
Result: > 200 µM

Request: Query (compound): COc1ccc(NC(=O)COC(=O)/C=C/c2ccc(OCc3ccccc3)c(O)c2)cc1 ; field requested: IC50
Result: > 200 µM

Request: Query (compound): COCOc1ccc(/C=C/C(=O)NCCc2c[nH]c3ccccc23)cc1OCOC ; field requested: IC50
Result: 157 µM

Request: Query (compound): COc1ccc(/C=C/C(=O)OCC(=O)NCc2ccco2)cc1OC ; field requested: IC50
Result: > 200 µM

Request: Query (compound): COc1ccc(NC(=O)COC(=O)/C=C/c2cc(OC)c(OCc3ccc(Cl)c(Cl)c3)c(OC)c2)cc1 ; field requested: IC50
Result: > 200 µM

Request: Query (compound): O=C(/C=C/c1ccccc1)NNC(=O)c1ccccc1O ; field requested: IC50
Result: 40.9 µM

Request: Query (compound): O=C(/C=C/c1ccccc1)N1CCN(Cc2ccc(Cl)c(Cl)c2)CC1 ; field requested: IC50
Result: 12.8 µM

Request: Query (compound): COCOc1cc(/C=C/C(=O)OCC(=O)NCc2ccco2)ccc1OCc1ccccc1 ; field requested: IC50
Result: > 200 µM

Request: Query (compound): O=C(/C=C/c1ccc(O)c(O)c1)NCCN1CCOCC1 ; field requested: IC50
Result: > 200 µM

Request: Query (compound): COCOc1cc(/C=C/C(=O)OCC(=O)NN2CCOCC2)ccc1OCc1ccccc1 ; field requested: IC50
Result: > 200 µM

Request: Query (compound): O=C(COC(=O)/C=C/c1ccc(O)c(O)c1)Nc1ccc(Cl)cc1 ; field requested: IC50
Result: 160 µM

Request: Query (compound): COc1ccc(/C=C/C(=O)N2CCN(Cc3ccc(Cl)c(Cl)c3)CC2)cc1OC ; field requested: IC50
Result: > 200 µM

Request: Query (compound): COCOc1ccc(/C=C/C(=O)NCCN2CCOCC2)cc1OCOC ; field requested: IC50
Result: > 200 µM

Request: Query (compound): CCCCCNC(=O)COC(=O)/C=C/c1ccc(O)c(O)c1 ; field requested: IC50
Result: 155 µM

Request: Query (compound): COc1ccc(/C=C/C(=O)OCC(=O)Nc2ccc(Cl)cc2)cc1OC ; field requested: IC50
Result: > 200 µM

Request: Query (compound): O=C(COC(=O)/C=C/c1ccc(O)c(O)c1)NN1CCOCC1 ; field requested: IC50
Result: > 200 µM

Request: Query (compound): O=C(/C=C/c1ccc(O)c(O)c1)OCCc1ccccc1 ; field requested: IC50
Result: 91 µM

Request: Query (compound): COCOc1cc(/C=C/C(=O)OCC(=O)Nc2nccs2)ccc1OCc1ccccc1 ; field requested: IC50
Result: > 200 µM

Request: Query (compound): CCOc1ccc(COc2c(OC)cc(/C=C/C(=O)N3CCN(Cc4ccc(Cl)c(Cl)c4)CC3)cc2OC)cc1 ; field requested: IC50
Result: > 200 µM

Request: Query (compound): CCOc1ccc(COc2c(OC)cc(/C=C/C(=O)OCC(=O)Nc3ccccc3)cc2OC)cc1 ; field requested: IC50
Result: > 200 µM

Request: Query (compound): COc1ccc(/C=C/C(=O)NCCN2CCOCC2)cc1OC ; field requested: IC50
Result: > 200 µM

Request: Query (compound): COc1ccc(NC(=O)COC(=O)/C=C/c2cc(OC)c(OCc3ccccc3)c(OC)c2)cc1 ; field requested: IC50
Result: > 200 µM

Request: Query (compound): COc1ccc(NC(=O)COC(=O)/C=C/c2ccc(O)c(O)c2)cc1 ; field requested: IC50
Result: 172 µM

Request: Query (compound): O=C(/C=C/c1ccc(O)c(O)c1)N1CCN(Cc2ccc(Cl)c(Cl)c2)CC1 ; field requested: IC50
Result: > 200 µM

Request: Query (compound): O=C(COC(=O)/C=C/c1ccc(O)c(O)c1)Nc1ccccc1 ; field requested: IC50
Result: > 200 µM

Request: Query (compound): COc1cc(/C=C/C(=O)OCC(=O)Nc2ccc(Cl)cc2)cc(OC)c1OCc1ccc(Cl)c(Cl)c1 ; field requested: IC50
Result: > 200 µM

Request: Query (compound): COc1ccc(/C=C/C(=O)NCCc2c[nH]c3ccccc23)cc1OC ; field requested: IC50
Result: > 200 µM

Request: Query (compound): CCOc1ccc(COc2c(OC)cc(/C=C/C(=O)NCCN3CCOCC3)cc2OC)cc1 ; field requested: IC50
Result: > 200 µM

Request: Query (compound): CCOc1ccc(COc2c(OC)cc(/C=C/C(=O)OCC(=O)Nc3ccc(Cl)cc3)cc2OC)cc1 ; field requested: IC50
Result: > 200 µM

Request: Query (compound): COCOc1ccc(/C=C/C(=O)N2CCN(Cc3ccc(Cl)c(Cl)c3)CC2)cc1OCOC ; field requested: IC50
Result: 7.4 µM

Request: Query (compound): O=C(/C=C/c1ccc(O)c(O)c1)NCCc1c[nH]c2ccccc12 ; field requested: IC50
Result: > 200 µM

Request: Query (compound): COCOc1cc(/C=C/C(=O)OCC(=O)Nc2ccc(OC)cc2)ccc1OCc1ccccc1 ; field requested: IC50
Result: > 200 µM

Request: Query (compound): Cc1ccc(NC(=O)COC(=O)/C=C/c2ccc(O)c(O)c2)cc1 ; field requested: IC50
Result: > 200 µM

Request: Query (compound): COCOc1cc(/C=C/C(=O)OCC(=O)Nc2ccc(Cl)cc2)ccc1OCc1ccccc1 ; field requested: IC50
Result: > 200 µM
